Reported growth values for a set of compounds
- Test system: MDA-MB-231 breast
- assay comment: NCI-60 one-dose screen, 48 h (100 = growth as untreated, 0 = no growth, -100 = all killed)
- study conditions: 10 µM unless noted
The panel holds about 83,000 compounds, 20% with a hit somewhere; the sample as a whole holds those more often. Calls of active or inactive are those of the source. Rule for the calls: active = growth percent below 10; inactive = the rest.

{"columns": ["compound", "growth"],
 "data": [
  ["O=C(/C=C/c1sc(Cl)nc1Cl)c1ccc(Br)cc1", "90.4% (inactive)"],
  ["COc1ccc(-c2conc2-c2ccccc2)cc1", "11.6% (inactive)"],
  ["COc1nc2ccccc2cc1-c1nc2c(cnn2-c2ccccc2)c(=O)[nH]1", "58.3% (inactive)"],
  ["COc1cc(CCC[P+](c2ccccc2)(c2ccccc2)c2ccccc2)c(OC)c(OC)c1OC", "61.5% (inactive)"],
  ["COc1cc(Nc2cn[nH]c2-c2ccc(Cl)cc2)cc(OC)c1OC", "49.4% (inactive)"]
]}

Prompt: Answer with the recorded growth for the compound listed here: NS(=O)(=O)c1ccc(-n2nc(-c3ccc(Cl)cc3)c3ccccc3c2=O)cc1
Response: 87.9% (inactive)

Prompt: Answer with the recorded growth for the compound listed here: COc1cccc(Cc2nn3cc(-c4ccccc4)nc3s2)c1
Response: 78.9% (inactive)

Prompt: Answer with the recorded growth for the compound listed here: CCCCCCN(CCCCCC)c1ccc(/C=C2/SC(=O)NC2=O)c(C)c1
Response: 111% (inactive)

Prompt: Answer with the recorded growth for the compound listed here: C=C(C)C1CCC2(C)OC2C1 (stereo unspecified)
Response: 102% (inactive)

Prompt: Answer with the recorded growth for the compound listed here: C/C(=N/NC(N)=S)c1sc(Nc2cccc(Cl)c2)nc1C
Response: 65% (inactive)

Prompt: Answer with the recorded growth for the compound listed here: CCOC(=O)c1c2c(n(-c3ccc(C#N)cc3)c1-c1ccccc1)C=CCC2
Response: 91.6% (inactive)

* * *

Reported growth values for a set of compounds
- Tested on: HS 578T breast
- assay comment: NCI-60 one-dose screen, 48 h (100 = growth as untreated, 0 = no growth, -100 = all killed)
- study conditions: 10 µM unless noted
- Experimental: Growth inhibition of the HS 578T human tumor cell line is measured as a screen for anti-cancer activity. Cells are grown in 96 well plates and exposed to the test compound for 48 hours. Compounds are tested at a single concentration, which is 10^-5 M for most compounds. The reported endpoint is percent growth (GI% or GIPRCNT), where numbers from 0 - 100% represent growth inhibition, and numbers from -100% - 0 represent cell death. For example, a value of 40 represents 60% growth inhibition. […]
This is part of a sample that, as a whole, favours compounds with a hit. Of some 83,000 tested, about 20% had one in any assay.
API: value field is a number in %; no unit string.

{"columns": ["compound", "measured value"],
 "data": [
  ["CC1(C)C2CC1C1(/C=N/NC(N)=S)C(C2)C(C#N)(C#N)C1(C#N)C#N (stereo not given)", 88.7],
  ["CN(C)CCN1CCN(c2ncccc2C2Nc3ccccc3-n3cccc32)CC1 (stereo not given)", 95.7],
  ["COc1nc2ccccc2cc1-c1nc2c(cnn2-c2ccccc2)c(=O)[nH]1", 50.2],
  ["O=C(CCCCCCSc1nc(-c2ccccc2)cc(-c2ccccc2)n1)NO", 43.1],
  ["NS(=O)(=O)c1ccc(N=Nc2ccc(-c3nn4cc(-c5ccccc5)nc4s3)cc2)cc1", 94.2],
  ["c1ccc2c(c1)Nc1ccncc1S2", 102]
]}

Prompt: Answer with the recorded growth for the compound listed here: N#Cc1c(-c2ccccc2)nc(SCC(=O)Nc2nc(-c3ccc(Cl)cc3)cs2)[nH]c1=O
Response: 88.6

Prompt: Answer with the recorded growth for the compound listed here: O=c1ccc(N=Nc2ccc([N+](=O)[O-])cc2)ccc1O
Response: 34.8

Prompt: Answer with the recorded growth for the compound listed here: Cc1ccc(C2CC(c3ccc(Nc4ccnc5cc(Cl)ccc45)cc3)=NN2C=O)cc1 (stereo not given)
Response: 61.8

Prompt: Answer with the recorded growth for the compound listed here: CCOC(=O)C1=C(N)Oc2c(sc3c(C)cccc23)C1c1ccc(OC)cc1 (stereo not given)
Response: 30

* * *

- Tested on: NCI-H226 lung
- assay comment: NCI-60 one-dose screen, 48 h
- study conditions: 10 µM unless noted
Compounds without any hit were thinned out: in the full panel of roughly 83,000, 20% have a hit. The source made the active and inactive calls. Rule for the calls: active = growth percent below 10; inactive = the rest.
Hello, when you answer, please use one of the following outcomes: 1 for active, -1 for inactive

Prompt: I would be grateful if you could indicate the recorded call for CCn1cnc2c1c(=O)[nH]c(=O)n2CC1CCC(CNS(=O)(=O)c2ccc(OC3CCOCC3)c(F)c2)CC1 (stereo unspecified) .
Response: -1

Prompt: I would be grateful if you could indicate the recorded call for CCOC(=O)Nc1ccc(-c2nc(-c3cccc(OC)c3)c(-c3ccnc(Br)c3)[nH]2)cc1 .
Response: -1

Prompt: I would be grateful if you could indicate the recorded call for O=C(O)CCC(=O)Nc1nnc(-c2ccccc2)s1 .
Response: -1

Prompt: I would be grateful if you could indicate the recorded call for O=C(Nc1nc2ccc(F)cc2s1)c1cccnc1Nc1ccc(Cl)cc1Cl .
Response: -1

Prompt: I would be grateful if you could indicate the recorded call for O=C(Nc1ccc(Br)cc1F)c1cc(Br)ccc1O .
Response: 1

Prompt: I would be grateful if you could indicate the recorded call for COc1cc(C(=O)/C=C/c2sc(Cl)nc2Cl)cc(OC)c1OC .
Response: -1

* * *

Reported growth values for a set of compounds
- Test system: CCRF-CEM leukemia
- assay comment: NCI-60 one-dose screen, 48 h (100 = growth as untreated, 0 = no growth, -100 = all killed)
- study conditions: 10 µM unless noted
Compounds without any hit were thinned out: in the full panel of roughly 83,000, 20% have a hit.
API: value field is a number in %; no unit string.

Reference set, count: 2
{"columns": ["compound", "target of assay", "readout unit", "growth"],
 "data": [
  ["COc1ccc(-c2nn(C(=O)c3cc(OC)c(OC)c(OC)c3)c3cc(N)ccc23)cc1", "CCRF-CEM leukemia", "%", 17],
  ["COc1ccc2cc(C(C)C(=O)Nc3ccc(-c4n[nH]c(=S)n4C4CCCCC4)cc3)ccc2c1 (stereo not given)", "CCRF-CEM leukemia", "%", 64.4]
]}

Prompt: Answer with the recorded growth for the compound listed here: CCOC(=O)c1c2c(n(-c3ccc(C#N)cc3)c1-c1ccccc1)C=CCC2
Response: 95.8

Prompt: Answer with the recorded growth for the compound listed here: CN(C)CCN1CCN(c2ncccc2C2Nc3ccccc3-n3cccc32)CC1 (stereo not given)
Response: 102

Prompt: Answer with the recorded growth for the compound listed here: O=C(N/N=C/[C@@H](O)[C@H](O)[C@H](O)CO)c1ccc(NC(=O)c2cccnc2)cc1
Response: 98.5

* * *

- Tested on: TK-10 renal
- assay comment: NCI-60 one-dose screen, 48 h
- study conditions: 10 µM unless noted
Compounds without any hit were thinned out: in the full panel of roughly 83,000, 20% have a hit. Calls of active or inactive are those of the source. The calls were made as follows: active = growth percent below 10; inactive = the rest.
Hello, when you answer, please use one of the following outcomes: 1.0 for active, 0.0 for inactive

As a guide, the following entries are already answered.
{"columns": ["compound", "cat"],
 "data": [
  ["CN1C(=C2C(=O)OC(C)(C)OC2=O)CCC1C(=O)NCc1ccc(Cl)cc1Cl (centres undefined)", 0.0],
  ["CCOC(=O)CC1C(COC(=O)NC)OC(n2cnc3c(NC(=O)Nc4ccccc4)ncnc32)C1O[Si](C)(C)C(C)(C)C (centres undefined)", 0.0]
]}

Prompt: I would be grateful if you could indicate the recorded call for C[C@]12CC[C@@H]3c4cc(OC(F)F)c(OS(N)(=O)=O)cc4CC[C@H]3[C@@H]1CC[C@@H]2OS(N)(=O)=O .
Response: 0.0

* * *

- Test system: HS 578T breast
- assay comment: NCI-60 one-dose screen, 48 h (100 = growth as untreated, 0 = no growth, -100 = all killed)
- study conditions: 10 µM unless noted
Compounds without any hit were thinned out: in the full panel of roughly 83,000, 20% have a hit.
Reported growth values for a set of compounds
API: value field is a number in %; no unit string.

Reference set, count: 4
{"columns": ["compound", "readout unit", "growth"],
 "data": [
  ["COc1cc(/C=C/c2ccccc2)cc(OC)c1", "%", 104],
  ["CCCCCCCCCCCCCCCCCC1OCC(COC(=O)O[C@]2(CC)C(=O)OCc3c2cc2n(c3=O)Cc3cc4ccccc4nc3-2)O1 (stereo not given in full)", "%", 99.5],
  ["O=C(N=c1oc2ccccc2cc1-c1cc2ccccc2[nH]1)Nc1ccc(Cl)cc1", "%", 96.5],
  ["CC1=NN(c2ccc(S(=O)(=O)O)cc2)C(=O)C1N=Nc1ccc(-c2ccc(N=Nc3ccc(OS(=O)(=O)c4ccc(C)cc4)cc3)c(S(=O)(=O)O)c2)cc1 (stereo not given)", "%", 80]
]}

// next entry
Prompt: Answer with the recorded growth for the compound listed here: Cc1nc(/N=C(\N)NC(=O)Nc2cccc(Cl)c2)sc1C
Response: 68.8

Cited source: PubChem BioAssay (NCI)
